- Test system: NCI-H522 lung
- experiment.summary: NCI tumour cell line growth inhibition, 48 h
Recorded TGI values for a group of molecules are listed next.
Express the result in µM but write the number alone.

Study these solved cases before continuing.
INSERT INTO assay_data (molecule, output_unit, value_reported) VALUES
  ('Cc1ccc(CNc2ccc3nc(CCC4CCCCC4)[nH]c3c2)cc1', 'µM', 5.13),
  ('Fc1cc(C2=Nn3c(COc4ccccc4Cl)nnc3S/C2=C\c2ccc(Cl)cc2)c(Cl)cc1Cl', 'µM', 22.6);

Could you please provide reported TGI for CSC(=O)C[C@@]12O[C@@H]([C@@H](C)C3CCC4[C@@H]5C(O)CC6=CC(=O)C=C[C@]6(C)C5CC[C@@]43C)C[C@](C)(O1)C(C)(C)O2 (some centres not stated) ? Thanks! 30

Could you please provide reported TGI for `CCC1=C(c2ccc(OC)cc2)C(C)(C)Oc2c1ccc(O)c2CN1CCCC1` ? Thanks! 3.96

====

Recorded TGI values for a group of molecules are listed next.
- Test system: OVCAR-3 ovarian
- experiment.summary: NCI tumour cell line growth inhibition, 48 h

Study these solved cases before continuing.
INSERT INTO results (molecule, assayed_system, value_reported) VALUES
  ('Cc1ccc(OCC2CO2)c(Br)c1 (configuration not stated)', 'OVCAR-3 ovarian', '68 µM'),
  ('CCCc1nn(C)c2c(=O)[nH]c(-c3cc(S(=O)(=O)N4CCN(C)CC4)ccc3OCC)nc12', 'OVCAR-3 ovarian', '> 100 µM'),
  ('CC1C(C)(C)C23CC12C1(OCCO1)C3Br (configuration not stated)', 'OVCAR-3 ovarian', '> 100 µM'),
  ('NC(=S)N/N=C/c1ccc(OC(=O)COc2cc(Cl)c(Cl)cc2Cl)cn1', 'OVCAR-3 ovarian', '58.2 µM');

Could you please provide reported TGI for `Nc1ncnc2c1ncn2[C@H]1C=C[C@@H](NO)C1` ? Thanks! > 100 µM

====

- Test system: SR leukemia
- experiment.summary: NCI tumour cell line growth inhibition, 48 h
measured.metric: GI50

INSERT INTO measurements (compound, value_reported) VALUES
  ('Oc1ccccc1-c1nn(CNc2ccc(Cl)cc2)c(=S)o1', '16 µM');

Could you please provide reported GI50 for `Cc1cc2c(F)c(Oc3ncnc(Nc4ccc(N5C[C@@H](C)N[C@@H](C)C5)cc4)c3C#N)cc(F)c2[nH]1` ? Thanks! 1.63 µM

Could you please provide reported GI50 for Cc1ccc2c(C(C[N+](=O)[O-])c3ccccc3)c(-c3ccccc3)[nH]c2c1 (centres undefined) ? Thanks! 4.54 µM

Could you please provide reported GI50 for `CCC[CH2][Sn](=[O])[CH2]CCC` ? Thanks! > 50 µM

====

Recorded TGI values for a group of molecules are listed next.
- Tested on: HL-60(TB) leukemia
- experiment.summary: NCI tumour cell line growth inhibition, 48 h

INSERT INTO measurements (molecule, measured_metric, value_reported) VALUES
  ('COc1ccccc1C#Cc1ccccc1C#Cc1ccc(OCCCCCCOc2ccccc2C#Cc2ccccc2C#Cc2ccccc2OC)cc1', 'TGI', '> 100 µM'),
  ('COc1cc(C2C=C(c3ccccc3)Oc3cc4c(cc32)OCO4)cc(OC)c1OC (configuration not stated)', 'TGI', '> 34.3 µM'),
  ('CCCCN(CC)C(=O)C(=O)Cc1nc2ccc(C(=O)c3ccccc3)cc2[nH]c1=O', 'TGI', '> 31.6 µM'),
  ('COc1ccc(/C=C2\N=C(N3CCCC(CO)C3)NC2=O)cc1 (configuration not stated)', 'TGI', '> 100 µM');

Print HL-60(TB) leukemia TGI for `COc1ccc2[nH]cc(CCNC(=O)[C@H](Cc3ccc(O)cc3)NC(=O)[C@@H](NCC(F)(F)F)C(C)C)c2c1` . > 100 µM

Print HL-60(TB) leukemia TGI for `O=C(c1c(F)c(F)c(F)c(F)c1F)c1c(F)c(F)c(F)c(F)c1F` . > 100 µM

Print HL-60(TB) leukemia TGI for CC(C)C1CSC2N1C(=O)C2(OCc1ccccc1)C1CC1 (configuration not stated) . > 100 µM

Print HL-60(TB) leukemia TGI for `Cc1nc2c(c(N3CCN(C)CC3)n1)Cc1ccccc1-2` . > 100 µM

Print HL-60(TB) leukemia TGI for `COC[C@H](NC(=O)c1cnc(C)s1)C(=O)N[C@@H](COC)C(=O)N[C@@H](Cc1ccccc1)C(=O)[C@@]1(C)CO1` . > 100 µM

Print HL-60(TB) leukemia TGI for `CCCCSC1=N/C(=C\c2ccccc2O)C(=O)N1` . > 100 µM

Print HL-60(TB) leukemia TGI for CC(C)(C)C(=O)N1C(C(=O)O)Cc2ccccc2[C@@H]1Cc1ccccc1 (some centres not stated) . > 100 µM

Print HL-60(TB) leukemia TGI for CC1(C)Oc2ccc3ccc(=O)oc3c2C(O)C1O (configuration not stated) . > 100 µM
